System: XF498
Experimental Protocol: NCI tumour cell line growth inhibition, 48 h
Calls of active or inactive are those of the source. No stated cut-off is given here; in the data, active = GI50 up to about 1.1 µM and inactive = higher.
Outcomes you can answer with include only these: active, inactive

Consider the worked cases shown below.
Molecule: COc1cc2c(cc1OC)C(=O)Cc1ccc(OC)c(OC)c1CN(C)CC2
System Under Test: XF498
Answer Label: inactive

Molecule: C=C1c2c(cc3c(c2O)c(=O)c2ccccc2n3C)OC1(C)C
System Under Test: XF498
Answer Label: inactive

Molecule: COc1cccc2c1OC1Sc3ccccc3-c3nn(-c4ccccc4)c-2c31 (stereo unspecified)
System Under Test: XF498
Answer Label: inactive

Molecule: Cc1c(C(=O)CC(=O)C(=O)Nc2ccccc2C(F)(F)F)[n+]([O-])c2ccccc2[n+]1[O-]
System Under Test: XF498
Answer Label: inactive

Molecule: COc1ccccc1Cc1nc(-c2ccccc2)nn(C2OC(COC(C)=O)C(OC(C)=O)C(OC(C)=O)C2OC(C)=O)c1=S (stereo unspecified)
System Under Test: XF498
Answer Label: inactive

Please find the next molecule below.
How was O=C(NC(=O)c1ccccc1[N+](=O)[O-])Nc1ccc(Oc2ncc(Br)cn2)c(Cl)c1 classified in this test?
active

###

System: UACC-257
Experimental Protocol: NCI tumour cell line growth inhibition, 48 h
Activity calls are given as the source filed them. No stated cut-off is given here; in the data, active = GI50 up to about 1.1 µM and inactive = higher.
Outcomes you can answer with include only these: YES (active), NO (inactive)

Consider the worked cases shown below.
Compound: Nc1nnc(N)n1N
Answer Label: NO

Compound: Cc1ccc(C(=O)O)c(/C=C2\Cc3cc(C)cc(C)c3C2=O)c1
Answer Label: NO

Compound: COc1ccc(C(O)/C(=N/N)c2nc3ccc(Cl)cc3nc2O)cc1 (stereo not drawn)
Answer Label: NO

Compound: CC12CCC(=O)N1[C@@H](c1ccccc1)[C@@H](c1ccccc1)O2 (stereo partly drawn)
Answer Label: NO

Compound: Cc1cccc(C(C)C)c1N1C(=O)C(=O)C(c2nc3ccccc3o2)C(=O)C1=O
Answer Label: NO

How was Cc1ccc(S(=O)(=O)NC(=O)NC(C(=O)O)C(C)O)cc1 (stereo not drawn) classified in this test?
NO

How was CCCC/C=C/C/C=C/CCCCCCCCC(=O)OCC1CCCN2CCCCC12 (stereo not drawn) classified in this test?
NO

How was CN(C(=O)C12C3C4C1C1C4(C(=O)C45C6C7C4C4C5C6C74C)C3C12C)C(C)(C)C (stereo not drawn) classified in this test?
NO

How was Cc1cc2c(c(C#N)c1C)NC(=O)C(CC(=O)O)C2=O (stereo not drawn) classified in this test?
NO

How was COC(=O)C(C(=O)OC)C1CC(=O)c2c(Br)sc(Br)c21 (stereo not drawn) classified in this test?
NO

How was Cc1nn(-c2ccccc2)c(C)c1/C=N/N=C1\S/C(=C\c2ccc(Cl)cc2)C(=O)N1c1ccccc1 classified in this test?
NO

How was C=C1C(=O)O[C@@H]2C(=O)[C@@H](C)CCC/C(C)=C/CC[C@@]3(C)O[C@@H]3C[C@@H]12 classified in this test?
NO

How was Nc1ccccc1/N=C/c1cc2cc([N+](=O)[O-])ccc2s1 classified in this test?
NO

How was O=C(Cn1cc(I)c(C(=O)NCC(O)CO)n1)NCC(O)CO (stereo not drawn) classified in this test?
NO

How was COC1C(O)=C2C(=O)O/C(C)=C/C=C/C=C/C=C\CC(c3ccccc3)NC(=O)\C=C/C=C\C=C\C=C\[C@@]2(C)[C@@H]1O (stereo partly drawn) classified in this test?
YES

How was Cc1ccc(N2C=Nn3c(nc4sc5c(c4c3=O)CCCC5)C2)cc1 classified in this test?
NO

How was CC(C)=CC[C@H]1C[C@]2(CC=C(C)C)C(=O)[C@@](CC=C(C)C)(C(=O)C(C(=O)c3ccccc3)=C2O)C1(C)C [6-EPI-CLUSIANONE] classified in this test?
NO

How was Cc1ccc2nc(N)[nH]c(=O)c2c1Sc1ccncc1 classified in this test?
NO

###

Test system: HOP-92
Experimental Protocol: NCI tumour cell line growth inhibition, 48 h
Calls of active or inactive are those of the source. No stated cut-off is given here; in the data, active = GI50 up to about 1.1 µM and inactive = higher.
Test Readout: GI50

# count of solved cases: 5
Compound: Cc1ccc(/C=C2\CCS(=O)(=O)c3ccccc3C2=O)cc1
Reported: 15 µM (inactive)

Compound: CC(C)COC(c1ccc2c(c1)OCO2)C(C)Br (stereo unspecified)
Reported: 21.7 µM (inactive)

Compound: OC(c1cc(C(F)(F)F)nc2c(Cl)cc(Cl)cc12)C1CCCCN1 (stereo unspecified)
Reported: 7.26 µM (inactive)

Compound: CNC(=O)c1ccc(C(=O)NCCCCCN(O)C(=O)CCC(=O)NCCCCCN(O)C(=O)CCC(=O)NCCCCCN(O)C(C)=O)c(O)c1O
Reported: 37.4 µM (inactive)

Compound: CC1C2=C(CCCC2=O)N(c2ccc(Cl)cc2)C2=C1C(=O)CCC2
Reported: 42.3 µM (inactive)

Entry COc1cc(C=O)cc(/C=N/c2ccccn2)c1O : reported GI50 = ?
2.72 µM (inactive)

Entry CCCCCCCCC(O)c1ccc(/C=C\C(O)CCCC(=O)O)s1 (stereo unspecified) : reported GI50 = ?
> 100 µM (inactive)

Entry CCCC/C=C/C/C=C/CCCCCCCCC(=O)OCC1CCCN2CCCCC12 (stereo unspecified) : reported GI50 = ?
31.7 µM (inactive)

Entry O=C1OC(CC(=O)c2ccc(Cl)cc2)C(Cl)=C1Cl (stereo unspecified) : reported GI50 = ?
> 100 µM (inactive)

Entry Nc1ccccc1/N=C/c1cc2cc([N+](=O)[O-])ccc2s1 : reported GI50 = ?
18.9 µM (inactive)

Entry COC(=O)CCC(NC(=S)N/N=C/c1ccccn1)C(=O)OC (stereo unspecified) : reported GI50 = ?
84.5 µM (inactive)

###

Measured GI50, listed per entry for reference.
Test system: 786-0
Experimental Protocol: NCI tumour cell line growth inhibition, 48 h
The source made the active and inactive calls. Cut-off read from the data, not from the text of the source: active = GI50 up to about 1.1 µM and inactive = higher.

# count of solved cases: 3
Molecule: c1ccc(-c2sc(-c3ccccc3)c3c2C(c2ccccc2)c2c(-c4ccccc4)sc(-c4ccccc4)c2C3c2ccccc2)cc1 (stereo not drawn)
Reported: > 100 µM (inactive)

Molecule: CSC1=N/C(=C\c2ccco2)C(=O)N1CN1CCCCC1
Reported: 54.6 µM (inactive)

Molecule: CC(C)CC(Nc1c(O)ccc2ccccc12)C(=O)O (stereo not drawn)
Reported: 59.3 µM (inactive)

Entry COC(C(O)CO)C(O)C(O)C(=O)NNc1ccccc1 (stereo not drawn) : reported GI50 = ?
> 100 µM (inactive)

Entry Cc1cc(C)nc(NS(=O)(=O)c2ccc(Nc3c4ccccc4nc4c(C(=O)NCCO)cccc34)cc2)n1 : reported GI50 = ?
> 10 µM (inactive)

Entry Cn1c(=O)cc(Nc2ccc(N)cc2)[nH]c1=O : reported GI50 = ?
> 100 µM (inactive)

Entry CC(=O)O[C@@H]1[C@H]2[C@@H](OC(=O)c3ccccc3)[C@@H](C)C[C@]2(O)[C@H](OC(C)=O)[C@@]2(C)[C@@H]3C[C@@](C)(OC(C)=O)C[C@@H](OC(C)=O)[C@@]3(OC(C)=O)C[C@@]12C : reported GI50 = ?
> 10 µM (inactive)

Entry CN(C)[C@@H]1C(O)=C(C(N)=O)C(=O)[C@@]2(O)C(O)=C3C(=O)c4c(O)cccc4C[C@H]3C[C@@H]12 : reported GI50 = ?
2.31 µM (inactive)

###

Tested on: MOLT-4
Experimental Protocol: NCI tumour cell line growth inhibition, 48 h
Calls of active or inactive are those of the source. Rule as the data show it: active = GI50 up to about 1.1 µM and inactive = higher.
Test Readout: GI50

Entry CC(C)C(N)=O [ISOBUTYRAMIDE] , system MOLT-4: what GI50 was measured?
> 5000 µM (inactive)

Entry Cc1ccc([N+](=O)[O-])cc1S(=O)(=O)Nc1ccc(C2=NN(S(=O)(=O)c3cc([N+](=O)[O-])ccc3C)C(c3cccs3)C2)cc1 (stereo unspecified) , system MOLT-4: what GI50 was measured?
22.4 µM (inactive)

Entry Cc1cc2c(c(C#N)c1C)NC(=O)C(CC(=O)O)C2=O (stereo unspecified) , system MOLT-4: what GI50 was measured?
> 100 µM (inactive)

Entry COc1ccc2c(c1)[n+]([O-])c(-c1ccccc1)c(N)[n+]2[O-] , system MOLT-4: what GI50 was measured?
71.3 µM (inactive)

Entry O=C(/C=C/c1ccc(OCc2cccc(Cl)c2)cc1)NO , system MOLT-4: what GI50 was measured?
2.67 µM (inactive)

Entry CO/N=C(\C(=O)[N-]n1cn[n+](CC(=O)OC(C)(C)C)c1)c1csc(NC(c2ccccc2)(c2ccccc2)c2ccccc2)n1 , system MOLT-4: what GI50 was measured?
> 10 µM (inactive)

###

Measured GI50, listed per entry for reference.
Test system: A549
Experimental Protocol: NCI tumour cell line growth inhibition, 48 h
Calls of active or inactive are those of the source. Rule as the data show it: active = GI50 up to about 1.1 µM and inactive = higher.

Compound: O=S(=O)(c1ccccc1)[C@H]1[C@@H]2O[C@@H]2C[C@@H]1O
Reported: > 100 µM (inactive)
//
Compound: CC(C)=NN/C(=N\c1ccc(Cl)cc1)NS(=O)(=O)c1cc2ccccc2s1
Reported: 44 µM (inactive)
//
Compound: Cn1cnc([N+](=O)[O-])c1Sc1nnc(-c2cccnc2)n1C
Reported: 84.5 µM (inactive)
//
Compound: Clc1sc(Cl)c2c1[C@@H](Cl)C[C@@H]2Br
Reported: 83.8 µM (inactive)
//
Compound: Clc1ccc(C(c2ccc(Cl)cc2)c2ccccn2)cc1
Reported: 18.5 µM (inactive)

Please look at the following compound next.
Entry CC(C)N(C(=O)C12C3C4C1C1C2C3C41C(O)C(C)(C)C)C(C)C (stereo unspecified) : reported GI50 = ?
> 50 µM (inactive)
